Below, each entry is listed with its recorded melting point.
endpoint: melting point (°C)

| structure_as_smiles | unit | result_number |
| --- | --- | --- |
| CS(=O)(=O)c1ccc(C(=O)N[C@H]2CC[C@H](CCN3CCN(c4nccc5c4CCO5)CC3)CC2)s1 | °C | 229 |
| CC(=O)N[C@H]1CC[C@H](CCN2CCN(c3nc(C)cc4c3CCO4)CC2)CC1 | °C | 217.5 |
| CC(C)(O)CC(=O)N[C@H]1CC[C@H](CCN2CCN(c3nccc4c3CCO4)CC2)CC1 | °C | 208 |

* * *

Target: human D3 receptor (Homo sapiens (Human))
Sequence (P35462 whole entry): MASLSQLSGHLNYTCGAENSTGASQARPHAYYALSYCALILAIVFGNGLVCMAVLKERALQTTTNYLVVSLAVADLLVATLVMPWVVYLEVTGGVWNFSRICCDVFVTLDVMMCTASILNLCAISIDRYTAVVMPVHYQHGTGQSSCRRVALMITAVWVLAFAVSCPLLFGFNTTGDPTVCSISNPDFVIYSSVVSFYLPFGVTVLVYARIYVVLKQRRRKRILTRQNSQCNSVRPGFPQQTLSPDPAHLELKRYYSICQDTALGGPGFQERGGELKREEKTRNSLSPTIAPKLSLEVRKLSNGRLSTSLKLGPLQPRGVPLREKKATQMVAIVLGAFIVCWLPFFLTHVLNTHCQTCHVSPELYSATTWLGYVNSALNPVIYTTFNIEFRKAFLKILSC
pKi: −log10 of the molar value.
# if value of pKi reaches 8, tag Fulfilled; if it stays below, tag Not fulfilled

| molecule | label_class |
| --- | --- |
| COC(C)CC(=O)N[C@H]1CC[C@H](CCN2CCN(c3nccc4c3CCO4)CC2)CC1 (some centres unmarked) | Not fulfilled |
| O=C(CCO)N[C@H]1CC[C@H](CCN2CCN(c3nccc4occc34)CC2)CC1 | Not fulfilled |
| CCS(=O)(=O)N[C@H]1CC[C@H](CCN2CCN(c3nccc4c3CCO4)CC2)CC1 | Not fulfilled |
| O=C(N[C@H]1CC[C@H](CCN2CCN(c3nccc4c3CCO4)CC2)CC1)c1ccc2ncccc2c1 | Not fulfilled |
| COCC(=O)N[C@H]1CC[C@H](CCN2CCN(c3nccc4occc34)CC2)CC1 | Not fulfilled |
| Cc1cc2c(c(N3CCN(CC[C@H]4CC[C@H](NC(=O)CC5CCOCC5)CC4)CC3)n1)CCO2 | Not fulfilled |
| C[C@]1(O)CC[C@H](C(=O)N[C@H]2CC[C@H](CCN3CCN(c4nccc5c4CCO5)CC3)CC2)CC1 | Not fulfilled |
| O=C(N[C@H]1CC[C@H](CCN2CCN(c3nccc4c3CCO4)CC2)CC1)c1ccc(C(F)(F)F)cc1 | Not fulfilled |
| O=C(N[C@H]1CC[C@H](CCN2CCN(c3nccc4c3CCO4)CC2)CC1)C1CC1 | Not fulfilled |
| O=C(N[C@H]1CC[C@H](CCN2CCN(c3nccc4c3CCO4)CC2)CC1)C1CCOCC1 | Not fulfilled |
| CO[C@@H]1CC[C@@H](CC(=O)N[C@H]2CC[C@H](CCN3CCN(c4nccc5sccc45)CC3)CC2)C1 [Example 25] | Fulfilled |
| CCC(C)C(=O)N[C@H]1CC[C@H](CCN2CCN(c3nccc4c3CCO4)CC2)CC1 (mixture of isomers) | Not fulfilled |
| CC(=O)N[C@H]1CC[C@H](CCN2CCN(c3ncc(C)c4occc34)CC2)CC1 | Not fulfilled |
| O=C(N[C@H]1CC[C@H](CCN2CCN(c3nccc4c3CCO4)CC2)CC1)C(F)(F)F | Not fulfilled |
| CO[C@H]1CC[C@H](CC(=O)N[C@H]2CC[C@H](CCN3CCN(c4nccc5c4CCO5)CC3)CC2)CC1 | Not fulfilled |
| CC(=O)N[C@H]1CC[C@H](CCN2CCN(c3nc(C)cc4occc34)CC2)CC1 | Fulfilled |
| CO[C@H]1CC[C@H](CC(=O)N[C@H]2CC[C@H](CCN3CCN(c4nccc5sccc45)CC3)CC2)C1 | Fulfilled |
| CS(=O)(=O)N[C@H]1CC[C@H](CCN2CCN(c3nccc4occc34)CC2)CC1 | Not fulfilled |
| COCCC(=O)N[C@H]1CC[C@H](CCN2CCN(c3nccc4sccc34)CC2)CC1 | Fulfilled |
| COCCC(=O)N[C@H]1CC[C@H](CCN2CCN(c3ncc(C)c4occc34)CC2)CC1 | Not fulfilled |

* * *

Molecular target: human D2 receptor (Homo sapiens (Human), UniProt P14416)
Sequence (P14416 whole entry): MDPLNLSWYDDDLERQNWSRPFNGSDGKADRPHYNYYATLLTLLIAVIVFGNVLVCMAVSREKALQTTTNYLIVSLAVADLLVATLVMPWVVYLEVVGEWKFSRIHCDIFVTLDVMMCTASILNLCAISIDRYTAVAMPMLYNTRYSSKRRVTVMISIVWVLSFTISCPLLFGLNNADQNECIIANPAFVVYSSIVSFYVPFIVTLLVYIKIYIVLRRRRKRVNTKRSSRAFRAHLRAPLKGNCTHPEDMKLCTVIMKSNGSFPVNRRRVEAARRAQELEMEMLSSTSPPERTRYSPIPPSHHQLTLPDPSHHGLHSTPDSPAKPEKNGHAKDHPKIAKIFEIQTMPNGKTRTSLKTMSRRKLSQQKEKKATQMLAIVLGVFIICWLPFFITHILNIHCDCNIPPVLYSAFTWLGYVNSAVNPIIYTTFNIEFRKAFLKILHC
Experiment: Radioligand binding assay, [3H]-spiperone, human D2 receptor
Settings: membranes of HEK293 EBNA cells expressing human D2; 0.7 nM [3H]-spiperone
endpoint: Ki (nM)

| molecule | unit | result_number |
| --- | --- | --- |
| CC(=O)N[C@H]1CC[C@H](CCN2CCN(c3ncc(C)c4occc34)CC2)CC1 [Example 104] | nM | 1460 |
| Cc1cnc(N2CCN(CC[C@H]3CC[C@H](NC(=O)C4CCOCC4)CC3)CC2)c2ccoc12 [Example 105] | nM | 1130 |
| COC(C)CC(=O)N[C@H]1CC[C@H](CCN2CCN(c3nccc4c3CCO4)CC2)CC1 (stereo partly drawn) [Example 139] | nM | 801 |
| O=C(N[C@H]1CC[C@H](CCN2CCN(c3nccc4c3CCO4)CC2)CC1)c1ccc(-c2ccccc2)cc1 [Example 134] | nM | 1130 |
| C/C=C/CC(=O)N[C@H]1CC[C@H](CCN2CCN(c3nccc4c3CCO4)CC2)CC1 [Example 81] | nM | 945 |
| CO[C@H]1CC[C@H](CC(=O)N[C@H]2CC[C@H](CCN3CCN(c4nccc5c4CCO5)CC3)CC2)C1 [Example 90] | nM | 1290 |
| Cc1cc(CC(=O)N[C@H]2CC[C@H](CCN3CCN(c4nccc5c4CCO5)CC3)CC2)on1 [Example 84] | nM | 1300 |
| N#CCC(=O)N[C@H]1CC[C@H](CCN2CCN(c3nccc4c3CCO4)CC2)CC1 [Example 59] | nM | 702 |
| CC(C)(O)CC(=O)N[C@H]1CC[C@H](CCN2CCN(c3nccc4c3CCO4)CC2)CC1 [Example 87] | nM | 1000 |
| O=C(C[C@@H]1CCCO1)N[C@H]1CC[C@H](CCN2CCN(c3nccc4c3CCO4)CC2)CC1 [Example 69] | nM | 858 |
| O=C(N[C@H]1CC[C@H](CCN2CCN(c3nccc4c3CCO4)CC2)CC1)c1ccc(N2CCOCC2)cc1 [Example 57] | nM | 867 |
| CCOCC(=O)N[C@H]1CC[C@H](CCN2CCN(c3nccc4occc34)CC2)CC1 [Example 12] | nM | 996 |
| O=C(N[C@H]1CC[C@H](CCN2CCN(c3nccc4c3CCO4)CC2)CC1)c1ccc(-c2cccnc2)cc1 [Example 120] | nM | 223 |
| O=C(C[C@H]1CC[C@H](O)CC1)N[C@H]1CC[C@H](CCN2CCN(c3nccc4sccc34)CC2)CC1 [Example 28] | nM | 392 |
| C[C@]1(O)CC[C@@H](C(=O)N[C@H]2CC[C@H](CCN3CCN(c4nccc5c4CCO5)CC3)CC2)CC1 [Example 55] | nM | 475 |
| CCC(=O)N[C@H]1CC[C@H](CCN2CCN(c3nccc4occc34)CC2)CC1 [Example 4] | nM | 780 |
| O=C(N[C@H]1CC[C@H](CCN2CCN(c3nccc4c3CCO4)CC2)CC1)c1ccc(Cl)cc1 [Example 46] | nM | 289 |
| CC(C)(C)CC(=O)N[C@H]1CC[C@H](CCN2CCN(c3nccc4c3CCO4)CC2)CC1 [Example 72] | nM | 444 |

* * *

Molecular target: UniProt P28223
Sequence (P28223 whole entry): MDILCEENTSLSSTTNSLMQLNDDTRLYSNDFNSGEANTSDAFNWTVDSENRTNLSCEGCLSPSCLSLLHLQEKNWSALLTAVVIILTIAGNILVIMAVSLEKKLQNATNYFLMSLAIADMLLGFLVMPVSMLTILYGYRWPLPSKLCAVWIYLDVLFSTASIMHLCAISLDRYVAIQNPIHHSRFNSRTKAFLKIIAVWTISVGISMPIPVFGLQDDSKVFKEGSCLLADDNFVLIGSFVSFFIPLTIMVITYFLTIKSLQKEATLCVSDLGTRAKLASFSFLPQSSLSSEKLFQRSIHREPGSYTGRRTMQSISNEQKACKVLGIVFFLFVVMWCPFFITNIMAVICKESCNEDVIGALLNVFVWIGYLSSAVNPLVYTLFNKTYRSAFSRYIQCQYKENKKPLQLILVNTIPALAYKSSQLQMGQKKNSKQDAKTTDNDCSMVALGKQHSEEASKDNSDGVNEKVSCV
Experiment: Radioligand binding assay, [3H]-ketanserin, human 5-HT2A receptor
Conditions: membranes of HEK293 EBNA cells expressing human 5-HT2A; 1.1 nM [3H]-ketanserin
Experimental: HEK293 EBNA cells were transiently transfected with expression plasmids encoding for the human D2 or D3 or for the human 5-HT2A receptor, respectively. […] The protein content of this homogenate was determined with the Bio-Rad (Bradford) Protein Assay (Biorad Laboratories GmbH, München, Germany) according to the instructions of the manufacturer using gamma globulin as the standard. […] The binding affinity (Ki) of the compounds was determined using radioligand binding. […]
Below, each entry is listed with its recorded log10(Ki).
endpoint: log10(Ki) (log10 of the value in µM)

| compound | log10(Ki) |
| --- | --- |
| CCS(=O)(=O)N[C@H]1CC[C@H](CCN2CCN(c3nccc4occc34)CC2)CC1 [Example 16] | -2.07 |
| COCCC(=O)N[C@H]1CC[C@H](CCN2CCN(c3nc(C)cc4c3CCO4)CC2)CC1 [Example 103] | -0.59 |
| O=C(CC1C[C@H](O)CO1)N[C@H]1CC[C@H](CCN2CCN(c3nccc4c3CCO4)CC2)CC1 (stereo in doubt) [Example 91] | -1.65 |
| O=C(N[C@H]1CC[C@H](CCN2CCN(c3nccc4c3CCO4)CC2)CC1)c1ccc(C(F)(F)F)cc1 [Example 47] | -1.73 |
| CN(C)S(=O)(=O)N[C@H]1CC[C@H](CCN2CCN(c3nccc4c3CCO4)CC2)CC1 [Example 66] | -1.94 |
| CCC(=O)N[C@H]1CC[C@H](CCN2CCN(c3nccc4c3CCO4)CC2)CC1 [Example 36] | -1.88 |
| O=C(N[C@H]1CC[C@H](CCN2CCN(c3nccc4c3CCO4)CC2)CC1)c1ccc(-c2cccnc2)cc1 [Example 120] | -1.91 |
| CN1CCN(c2ccc(C(=O)N[C@H]3CC[C@H](CCN4CCN(c5nccc6c5CCO6)CC4)CC3)cc2)CC1 [Example 118] | -2.35 |
| COCCC(=O)N[C@H]1CC[C@H](CCN2CCN(c3nccc4c3CCO4)CC2)CC1 [Example 35] | -1.62 |
| O=C(N[C@H]1CC[C@H](CCN2CCN(c3nccc4c3CCO4)CC2)CC1)C1CCC1 [Example 52] | -2.00 |
| O=C(CC(F)(F)F)N[C@H]1CC[C@H](CCN2CCN(c3nccc4c3CCO4)CC2)CC1 [Example 60] | -1.96 |
| CC(C)CCC(=O)N[C@H]1CC[C@H](CCN2CCN(c3nccc4c3CCO4)CC2)CC1 [Example 93] | -1.61 |
| O=C(Cc1ccc2c(c1)OCO2)N[C@H]1CC[C@H](CCN2CCN(c3nccc4c3CCO4)CC2)CC1 [Example 122] | -1.47 |
